Entries get a class label from measured boiling point. See ranges: band 1 = under 100 °C, band 2 = from 100 °C up to 200 °C, band 3 = 200 °C and over

# example entries with known answers
- substance smiles: "CCOC(=O)CBr"
  class: "band 2"
- substance smiles: "COc1ccc(COC(=O)Cc2ccccc2)cc1"
  class: "band 3"
- substance smiles: "COC(=O)c1ccccc1I"
  class: "band 3"
- substance smiles: "O=C(Cl)C(Cl)Cl"
  class: "band 2"

Incoming: Given `CC(C)C=O` , name the class its boiling point places it in.
Outgoing: band 1

Incoming: Similarly, `Cc1cccc(O)c1O` ?
Outgoing: band 3

Incoming: Similarly, `COc1ccc(C=O)cc1OC` ?
Outgoing: band 3

Incoming: Similarly, `O=S1OCCO1` ?
Outgoing: band 2

Incoming: Similarly, `Cc1ccccc1NCCO` ?
Outgoing: band 3

Incoming: Similarly, `CCCCCCCCCCN` ?
Outgoing: band 3

Incoming: Similarly, `FC(F)=C(F)F` ?
Outgoing: band 1

Incoming: Similarly, `CC(C)C12CCC(C)(CC1)O2` ?
Outgoing: band 2

Incoming: Similarly, `C=C1CCC1=C` ?
Outgoing: band 1

Incoming: Similarly, `C=COCCC(C)C` ?
Outgoing: band 2

Incoming: Similarly, `CCCCC(CCCC)CCCC` ?
Outgoing: band 3

Incoming: Similarly, `C=C(CC)c1ccccc1` ?
Outgoing: band 2

Incoming: Similarly, `CCCCOC` ?
Outgoing: band 1

Incoming: Similarly, `O=C=NC1CCCCC1` ?
Outgoing: band 2
